- Target: Angiotensin II receptor (Rattus norvegicus, UniProt P29089+P25095+P35351)
- Experiment summary: In vitro antagonist activity (ANG II like) expressed as percent activity relative to ANG II in rabbit aorta strip assay.
- Type: functional, tissue-based
Numbered stars: 1 amine (or outer) side, 2 acyl side, 3 side chain; on linkers, the order of the positions; unused ones are H or OH. Square brackets hold non-standard residues; d marks the D form. Peptide text beside a SMILES is read from it. X2 = O=C([C@H]1C[S+]([O-])CN1[*:1])[*:2]; Pen = CC(C)(S)[C@H](N)C(=O)O; NMeA = CN[C@@H](C)C(=O)O; Aib = CC(C)(N)C(=O)O; Sar = CNCC(=O)O
pA2 overview
Measured attribute: pA2

# Compound, Target, Measured attribute, Value operator, Test result
rows = [
    ("CC[C@H](C)[C@H](NC(=O)[C@H]1C[S+]([O-])CN1C(=O)[C@H](Cc1c[nH]cn1)NC(=O)[C@@H](NC(=O)[C@H](Cc1ccc(O)cc1)NC(=O)[C@@H](NC(=O)[C@H](CCCN=C(N)N)NC(=O)CNC)C(C)C)[C@@H](C)CC)C(=O)O (some centres undefined) (H-[Sar]RVYIH[X2]I-OH)", "Angiotensin II receptor (Rattus norvegicus, UniProt P29089+P25095+P35351)", "pA2", "=", 6.7),
    ("CC[C@H](C)[C@H](NC(=O)[C@@H]1CCCN1C(=O)[C@H](Cc1c[nH]cn1)NC(=O)[C@@H](NC(=O)[C@H](Cc1ccc(O)cc1)NC(=O)[C@H](C)N(C)C(=O)[C@H](CCCN=C(N)N)NC(=O)CNC)[C@@H](C)CC)C(=O)O (H-[Sar]R[NMeA]YIHPI-OH)", "Angiotensin II receptor (Rattus norvegicus, UniProt P29089+P25095+P35351)", "pA2", "=", 8.9),
    ("CC[C@H](C)[C@H](NC(=O)[C@@H]1CCCN1C(=O)[C@H](Cc1c[nH]cn1)NC(=O)[C@@H](NC(=O)[C@H](Cc1ccc(O)cc1)NC(=O)C(C)(C)NC(=O)[C@H](CCCN=C(N)N)NC(=O)CNC)[C@@H](C)CC)C(=O)O (H-[Sar]R[Aib]YIHPI-OH)", "Angiotensin II receptor (Rattus norvegicus, UniProt P29089+P25095+P35351)", "pA2", "=", 7),
    ("CC[C@H](C)[C@H](NC(=O)[C@@H]1CCCN1C(=O)[C@H](Cc1c[nH]cn1)NC(=O)[C@@H]1CCCN1C(=O)[C@H](Cc1ccc(O)cc1)NC(=O)[C@@H](NC(=O)[C@H](CCCN=C(N)N)NC(=O)CNC)C(C)C)C(=O)O (H-[Sar]RVYPHPI-OH)", "Angiotensin II receptor (Rattus norvegicus, UniProt P29089+P25095+P35351)", "pA2", "=", 8.7),
    ("CC[C@H](C)[C@H](NC(=O)[C@@H]1CCCN1C(=O)[C@H](Cc1c[nH]cn1)NC(=O)[C@@H](NC(=O)[C@H](Cc1ccc(O)cc1)NC(=O)[C@@H](NC(=O)[C@H](CCCN=C(N)N)NC(=O)CNC)C(C)C)C(C)(C)SC)C(=O)O (H-[Sar]RVY[Pen](Me)HPI-OH)", "Angiotensin II receptor (Rattus norvegicus, UniProt P29089+P25095+P35351)", "pA2", "=", 9),
    ("CC[C@H](C)[C@H](NC(=O)[C@H](Cc1ccc(O)cc1)NC(=O)[C@@H](NC(=O)[C@H](CCCN=C(N)N)NC(=O)CNC)C(C)C)C(=O)N[C@@H](Cc1c[nH]cn1)C(=O)N1CCC[C@H]1C(=O)N[C@H](Cc1ccccc1)C(=O)O", "Angiotensin II receptor (Rattus norvegicus, UniProt P29089+P25095+P35351)", "pA2", "=", 9),
    ("CC[C@H](C)[C@H](NC(=O)[C@@H]1CSCN1C(=O)[C@H](Cc1c[nH]cn1)NC(=O)[C@@H](NC(=O)[C@H](Cc1ccc(O)cc1)NC(=O)[C@@H](NC(=O)[C@H](CCCN=C(N)N)NC(=O)CNC)C(C)C)[C@@H](C)CC)C(=O)O", "Angiotensin II receptor (Rattus norvegicus, UniProt P29089+P25095+P35351)", "pA2", "=", 9.7),
    ("CC[C@H](C)[C@H](NC(=O)[C@@H]1CCCN1C(=O)[C@H](Cc1c[nH]cn1)NC(=O)[C@](C)(Cc1ccc(O)cc1)NC(=O)[C@H](Cc1ccc(O)cc1)NC(=O)[C@@H](NC(=O)[C@H](CCCN=C(N)N)NC(=O)CNC)C(C)C)C(=O)O", "Angiotensin II receptor (Rattus norvegicus, UniProt P29089+P25095+P35351)", "pA2", "=", 8.25),
    ("CC[C@H](C)[C@H](NC(=O)[C@@H]1CCCN1C(=O)[C@H](Cc1c[nH]cn1)NC(=O)[C@H](C)NC(=O)[C@H](Cc1ccc(O)cc1)NC(=O)[C@@H](NC(=O)[C@H](CCCN=C(N)N)NC(=O)CNC)C(C)C)C(=O)O (H-[Sar]RVYAHPI-OH)", "Angiotensin II receptor (Rattus norvegicus, UniProt P29089+P25095+P35351)", "pA2", "=", 7.5),
    ("CC[C@H](C)[C@H](NC(=O)[C@H](C)N(C)C(=O)[C@H](Cc1c[nH]cn1)NC(=O)[C@@H](NC(=O)[C@H](Cc1ccc(O)cc1)NC(=O)[C@@H](NC(=O)[C@H](CCCN=C(N)N)NC(=O)CNC)C(C)C)[C@@H](C)CC)C(=O)O (H-[Sar]RVYIH[NMeA]I-OH)", "Angiotensin II receptor (Rattus norvegicus, UniProt P29089+P25095+P35351)", "pA2", "=", 8.4),
    ("CC[C@H](C)[C@H](NC(=O)[C@@H]1CCCN1C(=O)[C@H](Cc1c[nH]cn1)NC(=O)[C@H]1N(C(=O)[C@H](Cc2ccc(O)cc2)NC(=O)[C@@H](NC(=O)[C@H](CCCN=C(N)N)NC(=O)CNC)C(C)C)CSC1(C)C)C(=O)O", "Angiotensin II receptor (Rattus norvegicus, UniProt P29089+P25095+P35351)", "pA2", "=", 9),
    ("CC[C@H](C)[C@H](NC(=O)[C@H]1N(C(=O)[C@H](Cc2c[nH]cn2)NC(=O)[C@@H](NC(=O)[C@H](Cc2ccc(O)cc2)NC(=O)[C@@H](NC(=O)[C@H](CCCN=C(N)N)NC(=O)CNC)C(C)C)[C@@H](C)CC)CSC1(C)C)C(=O)O", "Angiotensin II receptor (Rattus norvegicus, UniProt P29089+P25095+P35351)", "pA2", "=", 7.5),
    ("CC[C@H](C)[C@H](NC(=O)[C@@H]1CCCN1C(=O)[C@H](Cc1c[nH]cn1)NC(=O)[C@H](Cc1ccc(O)cc1)NC(=O)[C@H](Cc1ccc(O)cc1)NC(=O)[C@@H](NC(=O)[C@H](CCCN=C(N)N)NC(=O)CNC)C(C)C)C(=O)O", "Angiotensin II receptor (Rattus norvegicus, UniProt P29089+P25095+P35351)", "pA2", "=", 9.6),
    ("CC[C@@H](C)[C@@H](NC(=O)[C@H](Cc1ccc(O)cc1)NC(=O)[C@H](C)N(C)C(=O)[C@H](CCCN=C(N)N)NC(=O)CNC)C(=O)N[C@@H](Cc1c[nH]cn1)C(=O)N1CCC[C@H]1C(=O)NC(Cc1ccccc1)C(=O)O (stereo in doubt)", "Angiotensin II receptor (Rattus norvegicus, UniProt P29089+P25095+P35351)", "pA2", "<", 6),
]

====

- Target: Angiotensin II receptor (Rattus norvegicus) (UniProt P29089+P25095+P35351)
- Experiment summary: In vitro agonist activity relative to angiotensin II measured in rabbit aorta strip assay.
- Assay type: functional, tissue-based

# Chemical structure, Activity, %
data = [
    ("CC[C@H](C)[C@H](NC(=O)[C@@H]1CCCN1C(=O)[C@H](Cc1c[nH]cn1)NC(=O)[C@@H]1N(C(=O)[C@H](Cc2ccc(O)cc2)NC(=O)[C@@H](NC(=O)[C@H](CCCN=C(N)N)NC(=O)CNC)C(C)C)CSC1(C)C)C(=O)O", 0),
    ("CC[C@H](C)[C@@H](C(=O)N[C@@H](Cc1c[nH]cn1)C(=O)N1CCC[C@H]1C(=O)N[C@@H](Cc1ccccc1)C(=O)O)N(C)C(=O)[C@H](Cc1ccc(O)cc1)NC(=O)[C@@H](NC(=O)[C@H](CCCN=C(N)N)NC(=O)CNC)C(C)C", 20),
]

====

- Target: Angiotensin II receptor (Rattus norvegicus) (UniProt P29089+P25095+P35351)
- Experiment summary: In vitro agonist activity relative to angiotensin II measured in rabbit aorta strip assay.
- Assay type: functional, tissue-based
Square brackets hold non-standard residues; d marks the D form. Peptide text beside a SMILES is read from it. NMeA = CN[C@@H](C)C(=O)O; Aib = CC(C)(N)C(=O)O; Sar = CNCC(=O)O
Activity overview
Measured attribute: Activity (%)

# Molecule, Output unit, Test result
rows = [
    ("CC[C@H](C)[C@H](NC(=O)[C@H](C)N(C)C(=O)[C@H](Cc1c[nH]cn1)NC(=O)[C@@H](NC(=O)[C@H](Cc1ccc(O)cc1)NC(=O)[C@@H](NC(=O)[C@H](CCCN=C(N)N)NC(=O)CNC)C(C)C)[C@@H](C)CC)C(=O)O (H-[Sar]RVYIH[NMeA]I-OH)", "%", 0),
    ("CC[C@H](C)[C@H](NC(=O)[C@H](Cc1ccc(O)cc1)NC(=O)[C@@H](NC(=O)[C@H](CCCN=C(N)N)NC(=O)CNC)C(C)C)C(=O)N[C@@H](Cc1c[nH]cn1)C(=O)N1CCC[C@H]1C(=O)N[C@@H](C)C(=O)O", "%", 0.5),
    ("CC[C@H](C)[C@H](NC(=O)[C@@H]1N(C(=O)[C@H](Cc2c[nH]cn2)NC(=O)[C@@H](NC(=O)[C@H](Cc2ccc(O)cc2)NC(=O)[C@@H](NC(=O)[C@H](CCCN=C(N)N)NC(=O)CNC)C(C)C)[C@@H](C)CC)CSC1(C)C)C(=O)O", "%", 4),
    ("CC[C@H](C)[C@H](NC(=O)[C@@H]1CCCN1C(=O)[C@H](Cc1c[nH]cn1)NC(=O)[C@@H](NC(=O)[C@H](Cc1ccc(O)cc1)NC(=O)C(C)(C)NC(=O)[C@H](CCCN=C(N)N)NC(=O)CNC)[C@@H](C)CC)C(=O)O (H-[Sar]R[Aib]YIHPI-OH)", "%", 0),
]
